// values below are reported ε
- ASSAY EXPLANATION: UV absorption properties (λmax, molar extinction coefficient ε, efficiency E 1%, 1 cm)
- Format: physicochemical
- CONDITION NOTES: Table 13B; values in order of the λmax values; in M-1 cm-1

COMPOUND | ε
CC(C)(C)CC(C)(C)N1C=C(C(=O)/C=C/c2ccc(Br)cc2)C(C)(C)CC1 | 18987
CC(C)=CCCC(C)CC(=O)C1=CN(c2ccc(N3C=C(C(=O)CC(C)CCC=C(C)C)C(C)(C)CC3)cc2)CCC1(C)C (stereo not shown) [drawing 213] | 33000

Please examine the following record next.
Inquiry: Return reported ε; argument: CCCCC(CC)CN(c1ccc(C(=O)C2=CN(C(C)(C)C)CCC2(C)C)cc1)c1ccc(C(=O)C2=CN(C(C)(C)C)CCC2(C)C)cc1 (stereo not shown)
Reply text: 41598
